- TARGET: Histone deacetylase
- Assay type: subcellular, Homo sapiens, Nucleus
- ASSAY SETUP: hela
- Description: Inhibition of HDAC in human HeLa cell nuclear extract using Kac fluorogenic peptide as substrate containing residues 379-382 of p53 by fluorescence assay
OBSERVATION TYPE: IC50 (nM)
Give a bare numeral; the unit nM is implied.

Completed entries (count: 5):
Cc1ccc(C2CC(=O)N(CCCCCC(=O)NO)c3ccccc3S2)cc1 (racemic)    123.4
O=C(CCCCCN1C(=O)CC(c2ccc(Cl)c(Cl)c2)Sc2ccccc21)NO (racemic)    229.2
Cc1ccc(C2CC(=O)N(CCCCCC(=O)NO)c3ccccc3S2(=O)=O)cc1 (racemic)    42.2
O=C(CCCCCN1C(=O)CC(c2cccc(Br)c2)Sc2ccccc21)NO (racemic)    293.3
COc1ccc(C2CC(=O)N(CCCCCC(=O)NO)c3ccccc3S2(=O)=O)cc1 (racemic)    114.6

API: the following record is the query input.
Could you please provide reported IC50 for O=C(CCCCCN1C(=O)CC(c2ccccc2)S(=O)(=O)c2ccccc21)NO (racemic) ? Thanks!
38.6

====

- System: HCT-116
- EXPERIMENT: Cytotoxicity against human HCT-116 cells assessed as cell viability incubated for 24 hrs by MTT assay
- Assay type: functional, cell-based
- ASSAY SETUP: HCT-116, 24 h
OBSERVATION TYPE: IC50
Write the quantity with the unit trailing the number.

Could you please provide reported IC50 for O=C(CCCCCN1C(=O)CC(c2ccc(Cl)c(Cl)c2)S(=O)(=O)c2ccccc21)NO (racemic) ? Thanks!
18.5 µM

====

This section presents compounds with their documented inhibition values.
- TARGET: UniProt Q9UBN7
- Sequence (whole entry): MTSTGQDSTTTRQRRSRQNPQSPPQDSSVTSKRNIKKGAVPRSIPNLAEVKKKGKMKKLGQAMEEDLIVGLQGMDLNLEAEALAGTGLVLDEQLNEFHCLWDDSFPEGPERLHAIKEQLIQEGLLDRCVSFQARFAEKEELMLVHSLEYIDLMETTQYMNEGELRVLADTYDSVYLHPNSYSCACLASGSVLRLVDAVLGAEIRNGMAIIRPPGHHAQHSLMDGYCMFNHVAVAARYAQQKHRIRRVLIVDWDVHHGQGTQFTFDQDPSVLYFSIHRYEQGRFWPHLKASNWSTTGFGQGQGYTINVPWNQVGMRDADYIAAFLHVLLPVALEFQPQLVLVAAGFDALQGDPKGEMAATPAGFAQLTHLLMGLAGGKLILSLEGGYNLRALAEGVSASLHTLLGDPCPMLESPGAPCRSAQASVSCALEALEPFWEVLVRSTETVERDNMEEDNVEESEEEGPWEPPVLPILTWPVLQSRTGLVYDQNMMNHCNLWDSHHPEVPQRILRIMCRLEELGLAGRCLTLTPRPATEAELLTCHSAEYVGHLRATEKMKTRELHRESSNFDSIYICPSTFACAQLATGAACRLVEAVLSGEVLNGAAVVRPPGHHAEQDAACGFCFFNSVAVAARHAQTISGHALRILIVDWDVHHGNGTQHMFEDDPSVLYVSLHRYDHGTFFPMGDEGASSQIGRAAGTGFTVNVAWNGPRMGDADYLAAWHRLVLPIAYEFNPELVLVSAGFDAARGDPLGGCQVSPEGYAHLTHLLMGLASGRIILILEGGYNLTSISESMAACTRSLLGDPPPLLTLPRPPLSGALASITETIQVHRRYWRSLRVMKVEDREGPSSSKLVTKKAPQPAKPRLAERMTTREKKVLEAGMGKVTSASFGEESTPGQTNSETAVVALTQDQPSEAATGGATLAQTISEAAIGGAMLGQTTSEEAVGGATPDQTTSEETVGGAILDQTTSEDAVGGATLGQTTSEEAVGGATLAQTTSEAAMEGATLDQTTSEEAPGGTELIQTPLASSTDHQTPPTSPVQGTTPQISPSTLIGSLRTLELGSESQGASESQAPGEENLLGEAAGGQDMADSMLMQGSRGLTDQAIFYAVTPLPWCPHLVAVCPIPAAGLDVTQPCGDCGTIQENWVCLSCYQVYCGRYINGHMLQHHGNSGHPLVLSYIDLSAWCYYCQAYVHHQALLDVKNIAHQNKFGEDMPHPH
- EXPERIMENT: Inhibition of HDAC6 (unknown origin) at 10 uM using fluorogenic peptide as substrate pre-incubated for 15 mins followed by substrate addition incubated for 30 mins by fluorescence assay
- ASSAY SETUP: time 45.0 min
Give a bare numeral; the unit % is implied.

Could you please provide reported inhibition for O=C(CCCCCN1C(=O)CC(c2cccc3ccccc23)S(=O)(=O)c2ccccc21)NO (racemic) ? Thanks!
99.3

Could you please provide reported inhibition for O=C(CCCCCN1C(=O)CC(c2ccccc2Cl)S(=O)(=O)c2ccccc21)NO (racemic) ? Thanks!
99.4

Could you please provide reported inhibition for O=C(CCCCCCC(=O)Nc1ccc([C@H]2O[C@@H](CSc3nc(-c4ccccc4)c(-c4ccccc4)o3)C[C@@H](c3ccc(CO)cc3)O2)cc1)NO ? Thanks!
94.3

Could you please provide reported inhibition for O=C(CCCCCN1C(=O)CC(c2ccccc2)S(=O)(=O)c2ccccc21)NO (racemic) ? Thanks!
98.8

Could you please provide reported inhibition for O=C(CCCCCN1C(=O)CC(c2ccc(Cl)c(Cl)c2)S(=O)(=O)c2ccccc21)NO (racemic) ? Thanks!
99.5

Could you please provide reported inhibition for COc1ccc(C2CC(=O)N(CCCCCC(=O)NO)c3ccccc3S2(=O)=O)cc1 (racemic) ? Thanks!
95.8

Could you please provide reported inhibition for Cc1ccc(C2CC(=O)N(CCCCCC(=O)NO)c3ccccc3S2(=O)=O)cc1 (racemic) ? Thanks!
98.6
